Here we list compounds with their recorded MIC when tested on MRSA.

smilesString	unitOfMeasurement	MIC
O=C(O)c1cn(C2CC2)c2cc(N3CCNCC3)c(F)cc2c1=O	µg/mL	8
C[C@@H](O)[C@H]1C(=O)N2C(C(=O)O)=C(S[C@@H]3CN[C@H](C(=O)N(C)C)C3)[C@H](C)[C@H]12	µg/mL	1
CO[C@@H]1[C@@H](OC(N)=O)[C@@H](O)[C@H](Oc2ccc3c(O)c(NC(=O)c4ccc(O)c(CC=C(C)C)c4)c(=O)oc3c2C)OC1(C)C	µg/mL	0.125
CCN1CCN(C(=O)N[C@@H](C(=O)N[C@@H]2C(=O)N3[C@@H]2SC(C)(C)[C@@H]3C(=O)O)c2ccccc2)C(=O)C1=O	µg/mL	4
